measurementTarget: μ-opioid receptor (Homo sapiens (Human), UniProt P35372)
procedureText: μ-opioid receptor [35S]GTPγS functional assay, HEK-293 cells
Type: biochemical
experimentalContext: GTPγS, HEK-293 cells; relative to DAMGO
Rule: Emax of 60% or more gives true (1); anything lower gives false (0).

>>> df
                                   molecule  classassignment
0  C=CCOC1C[C@]23CCN(CC4CC4)[C@H](Cc4ccc(OC)cc42)C3C2CC12 (some centres unmarked)         true (1)
1  C=C1C[C@@]23CCN(CC4CC4)[C@H](Cc4ccc(OC)cc42)C3C2CC12 (some centres unmarked)         true (1)
2  COc1ccc2c(c1)[C@]13CCN(CC4CC4)[C@H](C2)[C@@H]1C1CC1C(O)C3 (some centres unmarked)        false (0)
3  COc1ccc2c(c1)[C@]13CCN(CC4CC4)[C@H](C2)[C@@H]1C1CC1C(=O)C3 (some centres unmarked)         true (1)
4  COc1ccc2c(c1)[C@]13CCN(CC4CC4)[C@H](C2)[C@@H]1[C@H]1C2CCC(CC2)[C@H]1C(=O)C3        false (0)

* * *

Each entry below carries its recorded pEC50.
measurementTarget: UniProt:P41145
procedureText: κ-opioid receptor [35S]GTPγS functional assay, HEK-293 cells
Type: biochemical
pEC50: −log10 of the molar value.
parameter: pEC50

>>> df
                                   compound  measurednumber
0  C=C1C[C@@]23CCN(CC4CC4)[C@H](Cc4ccc(OC)cc42)C3C2CC12 (stereo partly shown) [Compound 4]            6.99
1  C=CCOC1C[C@]23CCN(CC4CC4)[C@H](Cc4ccc(OC)cc42)C3C2CC12 (stereo partly shown) [Compound 3]            6.94
2  COc1ccc2c(c1)[C@]13CCN(CC4CC4)[C@H](C2)[C@@H]1C1CC1C(O)C3 (stereo partly shown) [Compound 2]            5.95
3  COc1ccc2c(c1)[C@]13CCN(CC4CC4)[C@H](C2)[C@@H]1C1CC1C(=O)C3 (stereo partly shown) [Compound 1]            6.86

* * *

measurementTarget: κ opioid receptor (Homo sapiens (Human))
procedureText: κ-opioid receptor [35S]GTPγS functional assay, HEK-293 cells
Format: biochemical
experimentalContext: GTPγS, HEK-293 cells; relative to U69,593
Rule: Emax of 80% or more gives Condition met; anything lower gives Condition not met.

In [3]: df
Out[3]:
                                   molecule    classassignment
0  C=C1C[C@@]23CCN(CC4CC4)[C@H](Cc4ccc(OC)cc42)C3C2CC12 (some centres unmarked) [Compound 4]      Condition met
1  C=CCOC1C[C@]23CCN(CC4CC4)[C@H](Cc4ccc(OC)cc42)C3C2CC12 (some centres unmarked) [Compound 3]  Condition not met
2  COc1ccc2c(c1)[C@]13CCN(CC4CC4)[C@H](C2)[C@@H]1[C@H]1C2CCC(CC2)[C@H]1C(=O)C3 [Compound 5]  Condition not met
3  COc1ccc2c(c1)[C@]13CCN(CC4CC4)[C@H](C2)[C@@H]1C1CC1C(O)C3 (some centres unmarked) [Compound 2]  Condition not met
